For each of the compounds below, state its pEC50.
# Tested on: HIV-2(ROD)
# assay-remarks: Anti-HIV activity in CEM cell cultures: prevention of giant cell (syncytium) formation, HIV-2(ROD)
# Type: cell-based
# condition-notes: Human immunodeficiency virus 2, CCRF-CEM, read-out: EC50 HIV-2(ROD)
Answers are plain numbers, as −log10 of the molar value.

C[C@H](NP(=O)(OCCOCn1cnc2c(=O)[nH]c(N)nc21)Oc1cccc2ccccc12)C(=O)OCc1ccccc1 (stereo partly drawn) ... 5.14

Quick one: give me pEC50 for each item below, same order please.
1. Nc1nc2c(ncn2COCCOP(=O)(N[C@@H](Cc2ccccc2)C(=O)OCc2ccccc2)Oc2ccccc2)c(=O)[nH]1 (stereo partly drawn)
2. COC(=O)[C@H](C)NP(=O)(OCCOCn1cnc2c(=O)[nH]c(N)nc21)Oc1ccccc1 (stereo partly drawn)
3. CCCOC(=O)[C@H](C)NP(=O)(OCCOCn1cnc2c(=O)[nH]c(N)nc21)Oc1cccc2ccccc12 (stereo partly drawn)
4. COC(=O)[C@H](C)NP(=O)(OCCOCn1cnc2c(=O)[nH]c(N)nc21)Oc1cccc2ccccc12 (stereo partly drawn)
5. C[C@H](NP(=O)(OCCOCn1cnc2c(=O)[nH]c(N)nc21)Oc1ccccc1)C(=O)OCc1ccccc1 (stereo partly drawn)

A:
[4.68, 4.59, 5.13, 5.03, 5.06]

====

# Tested on: HIV-2(ROD)
# assay-remarks: Anti-HIV activity in CEM cell cultures: prevention of giant cell (syncytium) formation, HIV-2(ROD)
# Assay type: cell-based
# condition-notes: Human immunodeficiency virus 2, CCRF-CEM; CEM cell cultures; 50% effective concentration; read-out: EC50 HIV-2(ROD)
pEC50: −log10 of the molar value.
Can you tell me pEC50 for the items I'm about to list?

Nc1nc(O)c2ncn(COC(CO)CO)c2n1 [GCV, Ganciclovir, reference compound] ... < 3.60

Continue with the next compound.
Per the record, Nc1nc2c(ncn2COCCO)c(=O)[nH]1 [ACV, Acyclovir, reference compound] has pEC50 of < 3.60

====

So I've got a bunch of compounds here, and I need their EC75 values.
# System: HIV-1 X4 LAI.04
# assay-remarks: HIV-1 replication in ex vivo human tonsillar tissue culture: p24gag in culture medium
# Format: cell-based
# condition-notes: ex vivo human tonsillar tissue, X4 LAI.04, p24gag
One number for each entry, in nM.

Please supply EC75 for each of the following items, keeping them in order.
1. C[C@H](NP(=O)(OCCOCn1cnc2c(=O)[nH]c(N)nc21)Oc1cccc2ccccc12)C(=O)OCc1ccccc1 (stereo partly drawn) [Cf 2574]
2. Nc1nc2c(ncn2COCCOP(=O)(N[C@@H](Cc2ccccc2)C(=O)OCc2ccccc2)Oc2ccccc2)c(=O)[nH]1 (stereo partly drawn) [Cf 2650]
3. CCCOC(=O)[C@H](C)NP(=O)(OCCOCn1cnc2c(=O)[nH]c(N)nc21)Oc1cccc2ccccc12 (stereo partly drawn) [Cf 2629]
4. COC(=O)[C@H](C)NP(=O)(OCCOCn1cnc2c(=O)[nH]c(N)nc21)Oc1ccccc1 (stereo partly drawn) [Cf 1811]

A:
1: 620; 2: 1500; 3: 400; 4: 100
